System: E. coli TESEC Mtb Asd
Test: growth (OD600 after 10 h); higher = more growth (less inhibition)
Settings: arabinose induction (level): Low; compound 0.1 mM; raw OD600 reference: median of DMSO wells 0.417, cell-free background 0.041
Structures can show the parent of a compound that is named as a salt.
# maps each entry to its growth
# print the numeric value only

Answered examples (10):
O=C(NCNC(=O)NC1C(=O)NC(=O)N1CO)NC1C(=O)NC(=O)N1CO (configuration not stated) ... 0.358
CN[C@@H]1C[C@@H](c2ccc(Cl)c(Cl)c2)c2ccccc21 [Indatraline hydrochloride] ... 0.0522
CCC(COC(=O)c1cc(OC)c(OC)c(OC)c1)(c1ccccc1)N(C)C (configuration not stated) ... 0.245
COc1ccc(CCN2CCC(Nc3nc4ccccc4n3Cc3ccc(F)cc3)CC2)cc1 ... 0.053
NC(=O)CN1CCCC1=O ... 0.325
CCC1=C[C@H]2CN3CCc4c([nH]c5ccccc45)[C@](C(=O)OC)(C2)[C@H]13 ... 0.437
S=C(NC1CCCCC1)N1CCC(c2cnc[nH]2)CC1 [Thioperamide maleate] ... 0.495
CN(C)[C@@H]1C(=O)C(C(N)=O)=C(O)[C@@]2(O)C(=O)C3=C(O)c4c(O)cccc4[C@@](C)(O)[C@H]3[C@H](O)[C@@H]12 [Oxytetracycline dihydrate] ... 0.0587
CC(Cc1ccc(O)cc1)NCC(O)c1cc(O)cc(O)c1 (configuration not stated) [Fenoterol hydrobromide] ... 0.419
CC(=O)O[C@H]1C[C@H](O[C@H]2[C@@H](O)C[C@H](O[C@H]3[C@@H](O)C[C@H](O[C@H]4CC[C@@]5(C)[C@H](CC[C@@H]6[C@@H]5C[C@@H](O)[C@]5(C)[C@@H](C7=CC(=O)OC7)CC[C@]65O)C4)O[C@@H]3C)O[C@@H]2C)O[C@H](C)[C@H]1O[C@@H]1O[C@H](CO)[C@@H](O)[C@H](O)[C@H]1O [Lanatoside C] ... 0.417

INPUT: Tell me the measured growth of CC(C)[N+](C)(CCC(C(N)=O)(c1ccccc1)c1ccccc1)C(C)C [Isopropamide iodide] , please.
OUTPUT: 0.41

INPUT: Tell me the measured growth of C[N+]1(C)CCCC(OC(=O)C(O)(c2ccccc2)c2ccccc2)C1 (configuration not stated) [Mepenzolate bromide] , please.
OUTPUT: 0.461

INPUT: Tell me the measured growth of Cc1cc(C(C#N)c2ccc(Cl)cc2)c(Cl)cc1NC(=O)c1cc(I)cc(I)c1O (configuration not stated) , please.
OUTPUT: 0.0874

INPUT: Tell me the measured growth of CC(C)C[C@H](CN)CC(=O)O , please.
OUTPUT: 0.406

INPUT: Tell me the measured growth of NCCCNCCSP(=O)(O)O , please.
OUTPUT: 0.431

INPUT: Tell me the measured growth of CC(=O)OC1CN2CCC1CC2 (configuration not stated) [Aceclidine Hydrochloride] , please.
OUTPUT: 0.306

INPUT: Tell me the measured growth of Oc1cc(Cl)ccc1Oc1ccc(Cl)cc1Cl , please.
OUTPUT: 0.0464

INPUT: Tell me the measured growth of C[C@]12CC[C@@H]3c4ccc(OC(=O)N(CCCl)CCCl)cc4CC[C@H]3[C@@H]1CC[C@@H]2O , please.
OUTPUT: 0.189

INPUT: Tell me the measured growth of CC(N)C(O)c1ccccc1 (configuration not stated) [Phenylpropanolamine hydrochloride] , please.
OUTPUT: 0.433

INPUT: Tell me the measured growth of COc1ccc(CN2CCNCC2)c(OC)c1OC [Trimetazidine dihydrochloride] , please.
OUTPUT: 0.307

INPUT: Tell me the measured growth of O=C(CCCN1CCC(n2c(=O)[nH]c3ccccc32)CC1)c1ccc(F)cc1 , please.
OUTPUT: 0.434

INPUT: Tell me the measured growth of c1ccc2c(c1)OCC(C1=NCCN1)O2 (configuration not stated) [Idazoxan hydrochloride] , please.
OUTPUT: 0.379
